# target-or-system: Muscarinic acetylcholine receptor M1 (Homo sapiens)
# assay-details: Cholinergic receptor muscarinic 1 (CHRM1) small molecule agonists, cell-based qHTS assay (AID 1963589); also: nearly all actives have a fitted effect of over 35% in size
# condition-label: CHRM1-CHO cells, agonist mode, calcium flux fluorescence; series mostly up to 76.8 µM
Calls of active or inactive are those of the source. Calls follow the shape of the full dose curve.
assay-metric: outcome

>>> assay_value("CCCCCCCCCCO")
"inactive"
>>> assay_value("O=C1CCCC1")
"inactive"
>>> assay_value("CCCCCCCCCCCCO")
"inactive"
>>> assay_value("C=CCNCC=C")
"inactive"
>>> assay_value("O=C(Cl)c1c(Cl)c(Cl)c(C(=O)Cl)c(Cl)c1Cl")
"inactive"

So what does the record say about outcome for `Oc1ccc(Cc2ccccc2O)cc1` ?
inactive

Now give it for `CCCCCC1=CCCC1=O` too.
inactive

Proceed to `CN(C)CCCN`
inactive
